meta.source: paper PMC7513592

LE (ligand efficiency) overview
- SYSTEM NAME: hTRPV6 (Homo sapiens)
- Sequence (Q9H1D0 1-765): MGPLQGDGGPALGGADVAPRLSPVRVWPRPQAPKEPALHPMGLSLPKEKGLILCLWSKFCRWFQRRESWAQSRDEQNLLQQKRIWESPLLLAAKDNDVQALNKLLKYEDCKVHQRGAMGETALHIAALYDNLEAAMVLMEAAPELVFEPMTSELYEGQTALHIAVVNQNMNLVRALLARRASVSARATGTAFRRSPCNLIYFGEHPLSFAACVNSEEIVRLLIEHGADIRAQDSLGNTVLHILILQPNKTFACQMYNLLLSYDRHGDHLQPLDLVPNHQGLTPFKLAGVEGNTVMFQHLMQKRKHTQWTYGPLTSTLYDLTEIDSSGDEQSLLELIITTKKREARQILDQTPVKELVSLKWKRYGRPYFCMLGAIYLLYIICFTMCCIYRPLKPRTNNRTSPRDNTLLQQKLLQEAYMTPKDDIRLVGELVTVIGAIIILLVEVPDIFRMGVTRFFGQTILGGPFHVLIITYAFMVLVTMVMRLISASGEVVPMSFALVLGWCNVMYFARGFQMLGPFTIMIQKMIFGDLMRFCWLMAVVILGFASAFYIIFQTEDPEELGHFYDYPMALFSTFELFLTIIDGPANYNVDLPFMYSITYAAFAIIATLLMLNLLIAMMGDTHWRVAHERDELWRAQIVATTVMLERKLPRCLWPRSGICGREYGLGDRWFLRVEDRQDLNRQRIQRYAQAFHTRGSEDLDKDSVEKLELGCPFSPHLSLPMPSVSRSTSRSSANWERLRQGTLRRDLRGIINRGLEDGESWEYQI
- Type: cell-based
- PARTICULARS: (1.37 × pIC50)/HAC, hTRPV6 IC50
// no unit, no text: just the number

ITEM SMILES: COc1ccc(CN2CCN([C@H]3CC[C@@H](c4ccccc4)CC3)CC2)cn1
LE (ligand efficiency): 0.32
--
ITEM SMILES: Cc1cccc([C@H]2CC[C@@H](N3CCN(Cc4ccc(=O)[nH]c4)CC3)CC2)c1
LE (ligand efficiency): 0.35
--
ITEM SMILES: CC(C)(C)[C@H]1CC[C@@H](N2CCN(Cc3ccc(=O)[nH]c3)CC2)CC1
LE (ligand efficiency): 0.32
--
ITEM SMILES: O=c1ccc(CN2CCN([C@H]3CC[C@@](O)(c4ccccc4C(F)(F)F)CC3)CC2)c[nH]1
LE (ligand efficiency): 0.30
--
ITEM SMILES: Brc1ccc(CN2CCN([C@H]3CC[C@@H](c4ccccc4)CC3)CC2)cn1
LE (ligand efficiency): 0.36

Query :: For the compound O=c1ccc(CN2CCN([C@H]3CC[C@@H](c4ccccc4)CC3)CC2)c[nH]1 , what LE (ligand efficiency) is on record?
Result :: 0.34

----------
- SYSTEM NAME: hTRPV6 (Homo sapiens, UniProt Q9H1D0)
- Assay type: cell-based
- PARTICULARS: pIC50 – clog P, clog P from ChemDraw
- Protocol: Calcium-5 was bought from Molecular Devices LLC. All other chemicals were purchased from Sigma - […] hTRPV6 activity was measured using the HEK293 cell line stably overexpressing human TRPV6 as previously reported.1,4 Stable cells were trypsinized and plated at 7.5 x 10^4 cells/well onto poly-D-lysine coated 96-well black plates with clear bottom using 100 μl DMEM supplemented with 10% FBS and 2 mM glutamine without antibiotics or phenol -red. […]
Listed here: items and their measured LLE (lipophilic ligand efficiency).
Give the figure by itself; no unit, no explanation.

COMPOUND: O=C(c1ccc(=O)[nH]c1)N1CCN([C@H]2CC[C@@H](c3ccccc3)CC2)CC1 [compound 20]
RECORDED MEASUREMENT: 3.9
//
COMPOUND: Brc1ccc(CN2CCN([C@H]3CC[C@@H](c4ccccc4)CC3)CC2)cn1 [compound 26]
RECORDED MEASUREMENT: 1.6
//
COMPOUND: O=c1ccc(CN2CCN([C@H]3CC[C@@H](c4ccccc4C(F)(F)F)CC3)CC2)c[nH]1 [compound 32]
RECORDED MEASUREMENT: 2.2
//
COMPOUND: COc1cc(CN2CCN([C@H]3CC[C@@H](C(C)(C)C)CC3)CC2)ccc1O [compound 8]
RECORDED MEASUREMENT: 0.3
//
COMPOUND: COc1cc(C(=O)N2CCN([C@H]3CC[C@@H](c4ccccc4)CC3)CC2)ccc1O [compound 14]
RECORDED MEASUREMENT: 2.1
//
COMPOUND: COc1cc(CN2CCN([C@H]3CC[C@@H](c4ccccc4)CC3)CC2)ccc1O [compound 9]
RECORDED MEASUREMENT: 0.9
//
COMPOUND: CC(C)(C)[C@H]1CC[C@@H](N2CCN(Cc3ccc(=O)[nH]c3)CC2)CC1 [compound 16]
RECORDED MEASUREMENT: 2.1

Okay, next one:
Query :: I have this compound here, O=c1ccc(CN2CCN([C@H]3CC[C@@H](c4ccccc4)CC3)CC2)c[nH]1 [compound 17] , and I need its recorded LLE (lipophilic ligand efficiency).
Result :: 3.5
